Values from PubChem BioAssay (NCI)

Record form. Attribute: TGI. Fill in for each entry.
System: HCT-15 colon
EXPERIMENT_NOTES: NCI tumour cell line growth inhibition, 48 h

Record COc1ccc(/C=C/C(=N/NC(=O)N/N=C(/C=C/c2ccc(OC)cc2)C(C)(C)CN2CCCCC2)C(C)(C)CN2CCCCC2)cc1 . Reported TGI: 7.06 µM

The compound listed as Nc1nc2c(nnn2C2OC(CO)C(O)C2O)c(=O)[nH]1 (stereo not drawn) has a reported TGI of > 100 µM

TGI in this record for C[C@]12CCC[C@H](O)[C@H]1C[C@H](CO)CC2 : > 100 µM

----------
System: LOX IMVI melanoma
EXPERIMENT_NOTES: NCI tumour cell line growth inhibition, 48 h
ENDPOINT_LABEL: TGI

// O=C(O)C1C2C=CC(C2)C1C(=O)O (configuration not stated) : TGI value = > 100 µM

Notebook: CC(C)(C)CNC(=O)NCn1cc(-c2ccccc2)nn1 , TGI read as > 100 µM

Value of TGI reported for the compound COC(=O)C1=Cc2cc(OC)c(OC)cc2[C@H](c2ccc(OC)c(OC)c2)C1C(=O)OC (some centres not stated) is > 100 µM

The recorded TGI for entry O=C(CC1(O)C(=O)Nc2ccccc21)c1ccc(F)cc1 (configuration not stated) equals > 100 µM

Quick note, TGI for O=C(O)CCNC(=O)c1cc(N(CCBr)CCBr)c([N+](=O)[O-])cc1[N+](=O)[O-] landed at > 100 µM

// OC(c1cc2ccccc2[nH]1)C1(c2cccnc2)SCCCS1 (configuration not stated) : TGI value = > 100 µM

O=c1oc2ccccc2c(O)c1/C=N/C(=S)NCc1ccccc1 has a reported TGI of > 100 µM
